Reference source: the RNAGym collection of RNA variant scans (doi:10.1073/pnas.2313332121)

B1: TPR t1 (parent)
chain: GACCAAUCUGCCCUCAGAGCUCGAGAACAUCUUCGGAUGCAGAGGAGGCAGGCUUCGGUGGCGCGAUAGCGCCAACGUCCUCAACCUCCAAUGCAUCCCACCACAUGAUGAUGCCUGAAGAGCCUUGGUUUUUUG

Variants of: B1
Experiment: polymerase ribozyme fitness, log enrichment relative to wild type (log ratio); higher = more active; in vitro selection for triplet polymerase activity
Classification by polymerase ribozyme fitness (log ratio) | ranges: lower level = under -3, middle level = from -3 up to -0.4, upper level = -0.4 and over

- MUTANT_NAME: "U59A U87G"
  GROUP_LABEL: "upper level"
- MUTANT_NAME: "A27U C31G G69U C79G G120C U130G U132A"
  GROUP_LABEL: "lower level"
- MUTANT_NAME: "A37C G45C C72U C104G C115G"
  GROUP_LABEL: "lower level"
- MUTANT_NAME: "C73G U133A"
  GROUP_LABEL: "middle level"
- MUTANT_NAME: "G61U A95U"
  GROUP_LABEL: "upper level"

Using the reported polymerase ribozyme fitness (log ratio), which band applies to G10U C12A G71U U78A C80U C114G ? lower level

Repeat for the following variant: C62U G93A middle level

Entry G120C G135A please upper level

// next record C34G C80U C89G G120C U129C lower level
